Test system: RPMI-8226
Experiment: NCI tumour cell line growth inhibition, 48 h
Calls of active or inactive are those of the source. Cut-off read from the data, not from the text of the source: active = GI50 up to about 1.1 µM and inactive = higher.
Respond with a class label; see active, inactive

>>> print(df.to_string())
                                   compound     label
0  CC1(C)C2C=CC1C(=O)CC2 (configuration not stated)  inactive

Task: Returns: the outcome recorded for NC(=S)N/N=C1\CCCCc2ccccc21 in this assay.
Result: inactive

Task: Check c1ccc(-c2cccc(-c3ccccn3)n2)nc1 [TERPYRIDINE] too.
Result: active

Task: Check COc1cc(/C=N/NC(=O)c2ccc(NC(C)=O)cc2OC)ccc1O too.
Result: inactive

Task: Check CC(C)(C)N/N=C(\Cc1occc(=O)c1O)C(=O)Nc1ccc([N+](=O)[O-])cc1[N+](=O)[O-] too.
Result: inactive

Task: Check COc1cc(C2=N/C(=C/c3cccs3)C(=O)O2)cc(OC)c1OC too.
Result: inactive

Task: Check OCC1=CC(NC2CC(CO)C(O)C(O)C2O)C(O)C(O)C1O (configuration not stated) too.
Result: inactive

Task: Check CCOC(=O)c1c(N2CCCC2)ncn(C)c1=S too.
Result: inactive

Task: Check COC(=O)/C=C1/OC(c2ccc(OC)cc2)=C(Cl)C1=O too.
Result: inactive

Task: Check CC(=O)OC1(C#N)CC2OC1C1N=NN(C(=O)OC(C)(C)C)C21 (configuration not stated) too.
Result: inactive

Task: Check CC(C)[Si](CC1=CCCCC12C(=O)N(COCC[Si](C)(C)C)c1ccccc12)(C(C)C)C(C)C (configuration not stated) too.
Result: inactive

Task: Check CC(C)OC(=O)/C=C/C(=O)O/C=C/[N+](=O)[O-] too.
Result: inactive

Task: Check CN[C@H]1CC[C@]23C[C@]24CC[C@]2(C)[C@@H]([C@H](C)N(C)C)CC[C@@]2(C)[C@@H]4CC[C@H]3C1(C)C too.
Result: inactive

Task: Check CCCCCCCCCCCCCCCC(=O)OCC1OC(n2ccc(N)nc2=O)C(O)C1O (configuration not stated) too.
Result: inactive

Task: Check COc1cc2c(c(OC)c1OC)-c1ccc(SC)c(=O)cc1[C@@H](OC(=O)c1ccncc1)CC2 too.
Result: active

Task: Check OCCCNCC(O)c1ccc(OCc2ccccc2)c(OCc2ccccc2)c1 (configuration not stated) too.
Result: inactive

Task: Check COC(=O)C1C(OCc2ccccc2)C2CCC1(OC)C=C2C (configuration not stated) too.
Result: inactive

Task: Check CCC#CCCCCCCCCC(F)C(=O)O (configuration not stated) too.
Result: inactive

Task: Check N#CC(/C(=N/NC(=O)C(=O)NN)C(=O)Nc1nc([N+](=O)[O-])cs1)c1ccc(Cl)cc1 (configuration not stated) too.
Result: inactive

Task: Check Nc1nc(N)c2c3c(cnc2n1)CC(c1ccccc1)CC3 (configuration not stated) too.
Result: inactive

Task: Check O=C(Nc1ccc(I)cc1C(=O)NCCO)c1cccs1 too.
Result: inactive

Task: Check O=C1C=CC(=O)c2c1ccc1c3ccccc3n(-c3ccccc3)c21 too.
Result: inactive

###

System: NCI/ADR-RES
Experiment: NCI tumour cell line growth inhibition, 48 h
Active and inactive are the calls of the source. No stated cut-off is given here; in the data, active = GI50 up to about 1.1 µM and inactive = higher.
Reported endpoint: GI50

>>> df
                                   compound  reported_endpoint          measurement
0  NC(=O)CNC(=O)[C@@H]1CC(OCCC(=O)O)CN1C(=O)C1CCCN1C(=O)OCc1ccccc1 (stereo not given in full)               GI50  > 100 µM (inactive)
1         CN(C)/N=N/c1ccc2[nH]c(=O)[nH]c2c1               GI50  > 100 µM (inactive)
2           C=CCOC(=O)Cn1cc(C)c(=O)[nH]c1=O               GI50  > 100 µM (inactive)
3  CC(C)OC(=O)[C@@H](O)[C@H](CO)C1=CC([Si](C)(C)c2ccccc2)=CON1               GI50  > 100 µM (inactive)

Kindly review the next compound as well.
Task: Entry CC(C)OC(=O)/C=C/C(=O)O/C=C/[N+](=O)[O-] : reported GI50 = ?
Result: 8.55 µM (inactive)

###

Test system: SF-268
Experiment: NCI tumour cell line growth inhibition, 48 h
Active and inactive are the calls of the source. Cut-off read from the data, not from the text of the source: active = GI50 up to about 1.1 µM and inactive = higher.
Respond with a class label; see Yes (active), No (inactive)

                                   compound  label
0  COc1nc(Cl)nc(N[C@H](C)c2c3ccccc3cc3ccccc23)n1     No

Task: Returns: the outcome recorded for COc1cc(C2S/C(=C/c3ccccc3)C(=O)N2c2ccc(Cl)c(Cl)c2)cc(OC)c1OC (stereo unspecified) in this assay.
Result: No

Task: Check OCC1CCCCN1Cc1nc2cc(Cl)ccc2[nH]1 (stereo unspecified) too.
Result: No

###

System: A498
Experiment: NCI tumour cell line growth inhibition, 48 h
The source made the active and inactive calls. Cut-off read from the data, not from the text of the source: active = GI50 up to about 1.1 µM and inactive = higher.
Respond with a class label; see active, inactive

Example entries begin here.
>>> print(df.to_string())
                                   compound     label
0  O=C(CNc1ccc(Cl)cc1Cl)Nn1c(-c2ccccc2)nc2ccccc2c1=O  inactive
1  c1ccc2c(c1)cc(C1NCCc3nc[nH]c31)c1ccccc12 (stereo unspecified)  inactive

Task: Returns: the outcome recorded for Cc1ccc(/N=N/c2c(O)ccc3cc(S(=O)(=O)O)ccc23)c(C)c1 in this assay.
Result: inactive

Task: Check CO[C@](C(=O)OC[C@H]1[C@@H](COC(C)=O)[C@@H]2O[C@H]1c1cc3c(cc12)OCO3)(c1ccccc1)C(F)(F)F too.
Result: inactive

Task: Check CC(C)[Si](OC1=C(C(=O)N(C)c2ccccc2Cl)CCC1)(C(C)C)C(C)C too.
Result: inactive

Task: Check Cc1c([N+](=O)[O-])ccc2c(NCCCN(C)C)ccnc12 too.
Result: inactive

Task: Check N#CNC(=N)NC(=O)/C=C/C=C/c1ccc(Cl)cc1 too.
Result: inactive

###

System: HOP-62
Experiment: NCI tumour cell line growth inhibition, 48 h
Calls of active or inactive are those of the source. No stated cut-off is given here; in the data, active = GI50 up to about 1.1 µM and inactive = higher.
Reported endpoint: GI50

Molecule	Reported endpoint	Measurement
CC1OC(OC2C(O)C(O)C(O)C(O)C2O)C(N)CC1NC(=N)C(=O)O (stereo not given)	GI50	> 100 µM (inactive)
COC(=O)c1cc(=O)n(-c2ccc3nn(C)nc3c2)cc1C(=O)OC	GI50	> 100 µM (inactive)
N#C/C(N)=C(C#N)/N=C/Nc1ccccc1N	GI50	> 100 µM (inactive)
CC(=O)OCC1OC(n2cnc3c(I)nc(I)nc32)C(OC(C)=O)C1OC(C)=O (stereo not given)	GI50	18.8 µM (inactive)
O=C1CCC(c2nc3cc(Cl)ccc3o2)C(=O)N1 (stereo not given)	GI50	> 100 µM (inactive)
CC/C(=C\c1ccc(OC)cc1)c1ccc(OC)cc1	GI50	> 100 µM (inactive)
C#CCOCn1cnc2ncnc(N)c21	GI50	> 100 µM (inactive)
CC(C)[Si](OC1=C(C(=O)N(C)c2ccccc2Cl)CCC1)(C(C)C)C(C)C	GI50	17.6 µM (inactive)
COc1cc(C2c3cc4c(cc3[C@@H](Nc3ccccc3)C3CO[C@@H](OC)[C@H]23)OCO4)cc(OC)c1O (stereo not given in full)	GI50	7.11 µM (inactive)
COC(=O)[C@]1(CCC(C)=O)C(=O)C=CN([C@H](C)c2ccccc2)[C@@H]1Cc1ccc(OC)c(OCc2ccccc2)c1I	GI50	22.8 µM (inactive)

Task: Form: Entry = COC(=O)NC1C(C)OC(OC2C/C=C(/C)C3C=CC4C(OC5CC(OC6CC(OC7CC(O)C(O)C(C)O7)C(OC7CC(O)C(OC)C(C)O7)C(C)O6)C(O)C(C)O5)C(C)CC(C)C4C3(C)C(=O)C3=C(O)C4(CC(C)C(CO)=CC4/C=C\2C)OC3=O)CC1(C)[N+](=O)[O-] (stereo not given) | System = HOP-62 | GI50 = ____
Result: 3.38 µM (inactive)

Task: Check CCCCCCCCCCCCCCC(O)C1CCC(C(O)CCC(O)CCCCCC(O)CC2=CC(C)OC2=O)O1 (stereo not given) too.
Result: 1.55 µM (inactive)

Task: Check COC(=O)C1CCN(C(=O)OC(C)(C)C)CC1 too.
Result: > 100 µM (inactive)

Task: Check Cn1c(=O)nc2n(-c3ccc(O)cc3)c3ccccc3nc-2c1=O too.
Result: 55.8 µM (inactive)

Task: Check CCOc1cc(/C=N/c2nc3cc4sc(/N=C/c5ccc(O)c(OCC)c5)nc4cc3s2)ccc1O too.
Result: > 100 µM (inactive)

Task: Check COc1ccc2c(c1)CCN1CCCc3ccccc3C21 (stereo not given) too.
Result: 69.2 µM (inactive)

Task: Check COc1ccc2oc3c(ccc[n+]3C)c(=O)c2c1 too.
Result: > 100 µM (inactive)

Task: Check CN(C)CCN(C)C(=O)c1cccc2cccc(C(=O)O)c12 too.
Result: > 100 µM (inactive)

Task: Check COC(=O)N/N=C(\C)C(CN(C)C)C(c1ccccc1)c1c(O)c2ccccc2oc1=O (stereo not given) too.
Result: > 100 µM (inactive)

Task: Check Oc1[nH]c(Nc2ccc(Cl)cc2)nc2ncnc1-2 too.
Result: > 100 µM (inactive)
